Each entry below carries its reported MIC.
test system: Stenotrophomonas maltophilia; assay: Antibacterial activity against Stenotrophomonas maltophilia isolate KJ deficient in L2 beta lactamase gene by Etest; assay type: functional
Value expressed in µg/mL; do not type the unit.

Exam item: // lookup MIC | system=Stenotrophomonas maltophilia | key= CC1(C)S[C@@H]2[C@H](NC(=O)C(C(=O)O)c3ccccc3)C(=O)N2[C@H]1C(=O)O (some centres not stated)
Marked response: 64

Exam item: Can you handle CO/N=C(\C(=O)N[C@@H]1C(=O)N2C(C(=O)[O-])=C(C[N+]3(C)CCCC3)CS[C@H]12)c1csc(N)n1 [CEFEPIME] next?
Marked response: 4

Exam item: For `CO/N=C(\C(=O)N[C@@H]1C(=O)N2C(C(=O)O)=C(COC(N)=O)CS[C@H]12)c1ccco1` then?
Marked response: 1020

Exam item: # repeat for `CO[C@@]1(NC(=O)Cc2cccs2)C(=O)N2C(C(=O)O)=C(COC(N)=O)CS[C@@H]21`
Marked response: 1020
